- TEST METHOD NOTES: qHTS of pediatric cancer cell lines to identify multiple opportunities for drug repurposing: Primary screen for LAN-5 cells (AID 1347100);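 further: plate controls were DMSO neutral control for no effect and bortezomib positive control for full effect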
- TEST CONDITIONS: LAN-5 neuroblastoma viability, CellTiter-Glo luminescence, 48 h; series mostly up to 46 µM
- Description: Drug repurposing or repositioning has been offered as a strategy for drug development in oncology programs. […] [1] Shen, M et al. Quantitative high-throughput phenotypic screening of pediatric cancer cell lines identifies multiple opportunities for drug repurposing. […] Cells were assayed in growth media at a density of 500-1,000 cells/well. […] After a 15 min incubation at room temperature, samples were analyzed for luminescence intensity using a ViewLux High-throughput CCD imager equipped with clear filters.
Results filed as inconclusive are left out. Activity calls are given as the source filed them. The call rests on the fitted dose curve; in most records, active means well fitted cell-killing curve with a large enough effect; inconclusive means small, poorly fitted or top-dose-only effect; inactive means no such curve, though single readings can be large or run the other way.
Would you mind answering with one of these outcomes? active, inactive

Below, 2 compounds whose answers are already recorded.
CO[C@@]1(NC(=O)Cc2cccs2)C(=O)N2C(C(=O)O)=C(COC(N)=O)CS[C@@H]21 | inactive
O=C(OCc1ccccc1)c1ccccc1 | inactive

-- ask GET /call?item= O=C(O)c1cc(O)c(O)c(O)c1 returns the recorded outcome of this test.
-- reply inactive

-- ask GET /call?item= CC(=O)SCC(CC(=O)c1ccc(C)cc1)C(=O)O (configuration not stated) returns the recorded outcome of this test.
-- reply inactive

-- ask GET /call?item= COc1ccnc2c1CCCCC2S(=O)c1nc2ccccc2[nH]1 (configuration not stated) returns the recorded outcome of this test.
-- reply inactive

-- ask GET /call?item= C[N+]1(C)[C@@H]2CC(OC(=O)[C@H](CO)c3ccccc3)C[C@H]1[C@@H]1O[C@@H]12 (some centres not stated) returns the recorded outcome of this test.
-- reply inactive

-- ask GET /call?item= O=C(O)Cc1ccc2c(c1)C(=O)c1ccccc1CO2 returns the recorded outcome of this test.
-- reply inactive

-- ask GET /call?item= Cc1c(N)c(=O)n(-c2ccccc2)n1C returns the recorded outcome of this test.
-- reply inactive

-- ask GET /call?item= c1ccc2sc(SN3CCOCC3)nc2c1 returns the recorded outcome of this test.
-- reply inactive

====

- STUDY SYSTEM: Thyrotropin-releasing hormone receptor (Homo sapiens) (UniProt P34981)
- Sequence (P34981 whole entry, looked up): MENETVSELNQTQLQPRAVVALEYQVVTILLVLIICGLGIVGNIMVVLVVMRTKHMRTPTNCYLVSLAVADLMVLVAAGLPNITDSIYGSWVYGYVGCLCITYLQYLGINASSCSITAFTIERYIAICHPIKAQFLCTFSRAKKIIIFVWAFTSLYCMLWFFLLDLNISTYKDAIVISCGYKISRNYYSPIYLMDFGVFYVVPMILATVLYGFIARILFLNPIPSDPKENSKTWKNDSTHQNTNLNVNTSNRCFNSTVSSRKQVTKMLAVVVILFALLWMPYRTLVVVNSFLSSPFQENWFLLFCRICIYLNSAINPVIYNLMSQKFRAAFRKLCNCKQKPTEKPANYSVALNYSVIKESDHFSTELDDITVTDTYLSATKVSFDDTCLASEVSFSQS
- TEST METHOD NOTES: qHTS for Small Molecule Agonists and Allosteric Enhancers of Human TRH Receptor: Validation Screen for Agonists (AID 493127);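 further: intracellular calcium rise by fluo-8 fluorescence before TRH EC20 addition; 0% is about no effect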
- TEST CONDITIONS: TRH receptor agonist cell assay; at 2 µM; hits give high values
PARAMETER MEASURED: activation (%)
State just the number; it will be interpreted in %.

CC(C)Cc1ccc([C@H](C)C(=O)O)cc1 | 0.688
O=C(O)/C=C/C(O)c1ccc(Cl)cc1 (stereo not drawn) | 0.125

Below: the item to evaluate.
-- ask Identify the measured activation of CCCCCCCCCCCCCCCCCC(=O)NCC(COP(=O)([O-])OCC[N+](C)(C)C)OCC (stereo not drawn) for Thyrotropin-releasing hormone receptor (Homo sapiens) (UniProt P34981).
-- reply 2.19

====

- TEST METHOD NOTES: Validation screen for small molecules that induce DNA re-replication in SW480 colon adenocarcinoma cells (AID 504364); further: 0% is about no effect
- TEST CONDITIONS: DNA re-replication phenotype (high-content imaging); series mostly up to 46.1 µM
Records with an inconclusive call do not appear. The source made the active and inactive calls. The call rests on the fitted dose curve; in most records, active means well fitted activation curve with a large enough effect; inconclusive means small, poorly fitted or top-dose-only effect; inactive means flat fitted curve, though single readings scatter.
PARAMETER MEASURED: outcome

O=C(c1cc(O)c(O)c([N+](=O)[O-])c1)c1ccccc1F | inactive
NC(CCCP(=O)(O)O)C(=O)O (stereo not drawn) | inactive
CC(C)(C)c1ccc(S(=O)(=O)/C=C/C#N)cc1 | inactive
